The reader will find reported residual activity values listed item by item below.
- ASSAY SYSTEM: Prostaglandin G/H synthase 1 (Homo sapiens, UniProt P23219)
- Sequence (P23219 whole entry): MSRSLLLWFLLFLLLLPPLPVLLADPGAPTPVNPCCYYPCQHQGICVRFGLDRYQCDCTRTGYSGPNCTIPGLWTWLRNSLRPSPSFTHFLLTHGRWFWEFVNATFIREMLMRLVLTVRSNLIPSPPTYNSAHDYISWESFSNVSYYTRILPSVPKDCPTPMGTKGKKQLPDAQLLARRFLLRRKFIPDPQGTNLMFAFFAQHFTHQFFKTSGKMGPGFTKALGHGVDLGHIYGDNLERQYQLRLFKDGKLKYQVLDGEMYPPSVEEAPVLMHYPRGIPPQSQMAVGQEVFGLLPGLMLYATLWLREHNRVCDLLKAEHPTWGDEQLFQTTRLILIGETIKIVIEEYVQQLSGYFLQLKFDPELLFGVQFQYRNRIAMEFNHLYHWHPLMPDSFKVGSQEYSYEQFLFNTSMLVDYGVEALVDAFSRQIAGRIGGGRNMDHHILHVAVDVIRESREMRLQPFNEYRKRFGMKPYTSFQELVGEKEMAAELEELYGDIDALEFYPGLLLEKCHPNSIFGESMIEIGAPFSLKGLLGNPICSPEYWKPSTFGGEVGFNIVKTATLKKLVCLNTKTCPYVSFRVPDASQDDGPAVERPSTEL
- RUN DESCRIPTION: Inhibition of COX1 in human whole blood assessed as effect on A23187-induced thromboxane B2 production at 100 uM relative to control; values are per cent of control

Cc1c(CC(=O)NCCCO[N+](=O)[O-])c2cc(O)ccc2n1C(=O)c1ccc(Cl)cc1	1%
COc1ccc2c(c1)c(CC(=O)NCCCCO)c(C)n2C(=O)c1ccc(Cl)cc1	1%
COc1ccc2c(c1)c(CC(=O)NCC(C)(C)CO[N+](=O)[O-])c(C)n2C(=O)c1ccc(Cl)cc1	3%
COc1ccc2c(c1)c(CC(=O)N(OC(C)=O)C(C)=O)c(C)n2C(=O)c1ccc(Cl)cc1	6%
COc1cc2c(CC(=O)OCc3ccccc3)c(C)n(C(=O)c3ccc(Cl)cc3)c2cc1Cl	58%

Inquiry: What value of residual activity has been reported for the following compound? `COc1ccc2c(c1)c(CC(=O)NOCCO)c(C)n2C(=O)c1ccc(Cl)cc1`
Reply text: 1%

Inquiry: What value of residual activity has been reported for the following compound? `Cc1c(CC(=O)NCCCO)c2cc(O)ccc2n1C(=O)c1ccc(Cl)cc1`
Reply text: 8%

Inquiry: What value of residual activity has been reported for the following compound? `COc1ccc2c(c1)c(CC(=O)O)c(C)n2Cc1ccc(S(C)(=O)=O)cc1`
Reply text: 87%

Inquiry: What value of residual activity has been reported for the following compound? `COc1cc2c(CC(=O)NCCCO[N+](=O)[O-])c(C)n(C(=O)c3ccc(Cl)cc3)c2cc1Cl`
Reply text: 13%

Inquiry: What value of residual activity has been reported for the following compound? `COc1ccc2c(c1)c(CCP(=O)(O)O)c(C)n2C(=O)c1ccc(Cl)cc1`
Reply text: 76%

Inquiry: What value of residual activity has been reported for the following compound? `COc1ccc2c(c1)c(CCOC(=O)NCCCO[N+](=O)[O-])c(C)n2C(=O)c1ccc(Cl)cc1`
Reply text: 62%

Inquiry: What value of residual activity has been reported for the following compound? `COc1ccc2c(c1)c(CC(=O)NOCc1ccccc1)c(C)n2C(=O)c1ccc(Cl)cc1`
Reply text: 0%

Inquiry: What value of residual activity has been reported for the following compound? `COc1ccc2c(c1)c(CC(=O)NC(CO[N+](=O)[O-])(CO[N+](=O)[O-])CO[N+](=O)[O-])c(C)n2C(=O)c1ccc(Cl)cc1`
Reply text: 1%

Inquiry: What value of residual activity has been reported for the following compound? `Cc1c(CC(=O)NCCCO[N+](=O)[O-])c2cc(OS(N)(=O)=O)ccc2n1C(=O)c1ccc(Cl)cc1`
Reply text: 65%

Inquiry: What value of residual activity has been reported for the following compound? `COc1ccc2c(c1)c(CC(=O)NOC(C)=O)c(C)n2C(=O)c1ccc(Cl)cc1`
Reply text: 7%

Inquiry: What value of residual activity has been reported for the following compound? `COc1ccc2c(c1)c(CCNS(=O)(=O)CCCO[N+](=O)[O-])c(C)n2C(=O)c1ccc(Cl)cc1`
Reply text: 16%

Inquiry: What value of residual activity has been reported for the following compound? `COc1ccc2c(c1)c(CCO)c(C)n2C(=O)c1ccc(Cl)cc1`
Reply text: 0%

Inquiry: What value of residual activity has been reported for the following compound? `COc1ccc2c(c1)c(CCO[N+](=O)[O-])c(C)n2CC1CCCCC1`
Reply text: 93%

Inquiry: What value of residual activity has been reported for the following compound? `COc1ccc2c(c1)c(CCO[N+](=O)[O-])c(C)n2C(=O)c1ccc(Cl)cc1`
Reply text: 15%
